// values below are reported self-cleavage
B1: Hairpin Ribozyme (parent)
chain: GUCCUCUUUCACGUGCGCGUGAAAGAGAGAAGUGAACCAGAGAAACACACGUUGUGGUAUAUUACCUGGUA

- Variants of: B1
- ASSAY EXPLANATION: self-cleavage, relative activity (ratio to wild type); higher = more cleavage; co-transcriptional
READOUT TYPE: self-cleavage

# VARIANT DESIGNATION, READOUT TYPE, DATA VALUE
rows = [
    ("A44U C65A", "self-cleavage", 0.184),
    ("U20C G27A", "self-cleavage", 0.345),
    ("A26C A49G", "self-cleavage", 0.461),
    ("A30C A59U", "self-cleavage", 0.169),
    ("U2G C3G", "self-cleavage", 0.785),
    ("G40C U52G", "self-cleavage", 0.064),
    ("A23C G40C", "self-cleavage", 0.0333),
    ("U67A U70G", "self-cleavage", 0.186),
    ("G1C G68C", "self-cleavage", 0.379),
    ("C18G G51U", "self-cleavage", 0.953),
    ("U2G A35C", "self-cleavage", 0.477),
    ("G27C G69C", "self-cleavage", 0.1),
    ("A23C A44G", "self-cleavage", 0.056),
    ("A24G U62G", "self-cleavage", 0.0667),
    ("A41G C65A", "self-cleavage", 0.693),
    ("U7C G40U", "self-cleavage", 0.163),
    ("A30U A44G", "self-cleavage", 0.064),
    ("G19C A23C", "self-cleavage", 0.696),
    ("A23G G51A", "self-cleavage", 0.781),
    ("U5C A45G", "self-cleavage", 0.157),
    ("C12U A61C", "self-cleavage", 0.24),
    ("G56A U70C", "self-cleavage", 0.247),
    ("A49G U70C", "self-cleavage", 0.262),
    ("G15C C66A", "self-cleavage", 0.144),
    ("A22G C66A", "self-cleavage", 0.172),
    ("U58A G68A", "self-cleavage", 0.272),
    ("G15A G32C", "self-cleavage", 0.174),
    ("C37A A41G", "self-cleavage", 0.339),
    ("U2G G56A", "self-cleavage", 0.0909),
    ("U33C U58A", "self-cleavage", 0.0907),
    ("A26G A45G", "self-cleavage", 0.132),
    ("C6U U63C", "self-cleavage", 0.167),
    ("G19C A35U", "self-cleavage", 0.574),
    ("A28U A36G", "self-cleavage", 0.656),
    ("C3U U67C", "self-cleavage", 0.122),
    ("A39C G51C", "self-cleavage", 0.324),
    ("G32A C37A", "self-cleavage", 0.115),
    ("U14G A59G", "self-cleavage", 0.121),
    ("G29C U33C", "self-cleavage", 0.224),
    ("A28U U53C", "self-cleavage", 0.769),
    ("G15A A36G", "self-cleavage", 1.08),
    ("A23G U53C", "self-cleavage", 0.995),
    ("G17U U20C", "self-cleavage", 1.26),
    ("A31G U60G", "self-cleavage", 0.412),
    ("C12U U20C", "self-cleavage", 0.894),
    ("A28G A44C", "self-cleavage", 0.202),
    ("G34C A47G", "self-cleavage", 0.448),
    ("U62A G69C", "self-cleavage", 0.113),
    ("G1A U14A", "self-cleavage", 0.127),
    ("C37G U62G", "self-cleavage", 0.138),
    ("U14G C48G", "self-cleavage", 0.178),
    ("U9G A31G", "self-cleavage", 0.549),
    ("U33G A44C", "self-cleavage", 0.0874),
    ("C3G A47U", "self-cleavage", 0.0452),
    ("A22G G40C", "self-cleavage", 0.146),
    ("C6A A22C", "self-cleavage", 0.541),
]
